# TARGET_SYSTEM: STAT1 (Homo sapiens)
# Construct: endogenous in cells; host or cells: MOLM-16 (acute leukemia cells)
# Sequence (P42224 1-750): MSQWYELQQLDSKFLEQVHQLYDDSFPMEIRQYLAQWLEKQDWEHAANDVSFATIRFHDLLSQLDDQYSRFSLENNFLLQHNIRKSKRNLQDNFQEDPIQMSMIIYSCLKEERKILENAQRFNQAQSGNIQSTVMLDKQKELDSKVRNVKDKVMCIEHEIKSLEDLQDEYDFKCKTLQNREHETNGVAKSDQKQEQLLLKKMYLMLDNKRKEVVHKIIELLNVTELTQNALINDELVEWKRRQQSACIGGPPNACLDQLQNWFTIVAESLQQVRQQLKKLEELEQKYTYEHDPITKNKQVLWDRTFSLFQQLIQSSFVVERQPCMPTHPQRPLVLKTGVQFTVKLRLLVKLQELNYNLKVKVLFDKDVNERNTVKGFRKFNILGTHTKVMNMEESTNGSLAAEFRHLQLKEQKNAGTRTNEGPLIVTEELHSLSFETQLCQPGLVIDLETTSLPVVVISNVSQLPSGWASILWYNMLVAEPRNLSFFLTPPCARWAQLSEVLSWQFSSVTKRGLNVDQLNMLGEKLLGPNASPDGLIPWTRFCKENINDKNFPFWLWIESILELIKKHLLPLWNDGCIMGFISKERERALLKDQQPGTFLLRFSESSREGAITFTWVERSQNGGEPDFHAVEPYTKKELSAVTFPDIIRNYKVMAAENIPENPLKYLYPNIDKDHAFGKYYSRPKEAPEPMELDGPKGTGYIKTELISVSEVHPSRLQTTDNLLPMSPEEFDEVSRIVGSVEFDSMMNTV
# METHOD_DESCRIPTION: Fluorescent immunoblotting of STAT1 protein in MOLM-16 cells (estimated DC50)
# Type: cell-based
# SETUP_CONDITIONS: MOLM-16, 4 h

COMPOUND: COC(=O)N1CC[C@H]2CC[C@@H](C(=O)N[C@@H](CCCN)C(=O)N[C@@H](Cc3ccc(C(C)(C)C)cc3)C(=O)N3CCC(CCC#Cc4cccc5c4CN(C4CCC(=O)NC4=O)C5=O)CC3)N2C(=O)[C@@H](NC(=O)c2cc3cc(C(F)(F)P(=O)(O)O)ccc3s2)C1 (stereo partly drawn) [Cpd. No. 1]
DC50: > 1000 nM

COMPOUND: NC(=O)CC[C@H](NC(=O)[C@@H]1CC[C@@H]2CCN(C(=O)CCCCCC#Cc3cccc4c3CN(C3CCC(=O)NC3=O)C4=O)C[C@H](NC(=O)c3cc4cc(C(F)(F)P(=O)(O)O)ccc4s3)C(=O)N21)c1ncc(-c2ccccc2)s1 (stereo partly drawn) [Cpd. No. 2]
DC50: > 1000 nM

COMPOUND: CCN1CC[C@H]2CC[C@@H](C(=O)N[C@@H](CCn3ccnc3)C(=O)N[C@@H](Cc3ccc(C(C)(C)C)cc3)C(=O)N3CCC(CCC#Cc4cccc5c4CN(C4CCC(=O)NC4=O)C5=O)CC3)N2C(=O)[C@@H](NC(=O)c2cc3cc(C(F)(F)P(=O)(O)O)ccc3s2)C1 (stereo partly drawn) [Cpd. No. 19]
DC50: > 1000 nM
